Reported EC50 values for the following compounds.
Test system: HIF response element(HRE)-dependent luciferase in 786-O-HRE-Luc cells
Test Name: Luciferase assay in 786-O-HRE-Luc cells
Format: cell-based
Condition Details: approximately 24 hours incubation
Could you write the number and then its unit?

Example cases with answers are listed next.
Record summary for N#Cc1cc(F)cc(Oc2ccc3c4c2C(F)CC4(O)C(F)(F)S3(=N)=O)c1 (stereo not shown) : reported EC50 = 46 nM

Notebook: `N#Cc1cc(F)cc(Oc2ccc3c4c2[C@@H](F)[C@@H](F)[C@]4(O)C(F)(F)S3(=O)=O)c1` , EC50 read as 6.1 nM

Data point: N#Cc1cncc(Oc2ccc3c4c2[C@@H](F)[C@H](F)[C@]4(O)C(F)(F)S3(=O)=O)c1 [Compound 3-P1] ; EC50 = 67.7 nM

Would you kindly look at the next entry?
`N#Cc1cncc(Oc2ccc3c4c2[C@@H](F)[C@@H](F)[C@]4(O)C(F)(F)S3(=O)=O)c1` has a reported EC50 of 12.2 nM

---

System: HIF response element(HRE)-dependent luciferase in 786-O-HRE-Luc cells
Test Name: Luciferase assay in 786-O-HRE-Luc cells
Format: cell-based
Condition Details: approximately 24 hours incubation
Overview of reported EC50 across a group of compounds:
Record the value in nM, omitting the unit from your answer.

EC50 value, target or system HIF response element(HRE)-dependent luciferase in 786-O-HRE-Luc cells, for N#Cc1cc(F)cc(Oc2ccc3c4c2[C@@H](F)[C@H](F)[C@]4(O)C(F)(F)S3(=O)=O)c1 [Compound 4-P1] : 19.2

Given the compound N#Cc1cncc(Oc2ccc3c4c2[C@H](F)[C@@H](F)[C@@]4(O)C(F)(F)S3(=O)=O)c1 [Compound 3-P2] and test system HIF response element(HRE)-dependent luciferase in 786-O-HRE-Luc cells, the measured EC50 is 3990

The observed EC50 for `N#Cc1cncc(Oc2ccc3c4c2[C@H](F)[C@H](F)[C@@]4(O)C(F)(F)S3(=O)=O)c1` when tested with HIF response element(HRE)-dependent luciferase in 786-O-HRE-Luc cells stands at 6410

Record `N#Cc1cc(F)cc(Oc2ccc3c4c2[C@H](F)[C@H](F)[C@@]4(O)C(F)(F)S3(=O)=O)c1` has HIF response element(HRE)-dependent luciferase in 786-O-HRE-Luc cells EC50 equal to 511

I looked up N#Cc1cc(F)cc(Oc2ccc3c4c2[C@H](F)[C@@H](F)[C@@]4(O)C(F)(F)S3(=O)=O)c1 [Compound 4-P2] and its EC50 for HIF response element(HRE)-dependent luciferase in 786-O-HRE-Luc cells was 48.5

---

Test Name: Pharmacokinetic test in SD rats by gavage
Condition Details: male, SD, rat, in vivo, po, 5 mg/kg
Measurement Kind: AUC(0-inf) (ng·h/mL)
Use ng·h/mL as the unit, but write only the number.

// sample CS(=O)(=O)c1ccc(Oc2cc(F)cc(C#N)c2)c2c1[C@H](O)C(F)(F)C2 [PT2385, reference compound] , its AUC(0-inf) was 843

Values from patent US20240158367A1
